Where these numbers come from: PubChem BioAssay

# PROTOCOL_DESCRIPTION: inhibitors of E-selectin induction by TNFa, primary screen, imaging, HUVEC, immunofluorescence, MLSMR starter and 10KST1 sets (AID 487);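 note: signal is fraction of cell area covered by stained E-selectin grains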
# STATED_CONDITIONS: HUVEC TNFalpha-induced E-selectin immunofluorescence imaging, at 2 µM; active compounds read high
Calls of active or inactive are those of the source.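 Rule for the calls: active = visually confirmed hit in the image check and inhibition above 20%; inconclusive = visually confirmed hit but inhibition not above 20%; inactive = no visual hit in the image check.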
Examples of compounds with documented inhibition follow.

{"columns": ["COMPOUND", "inhibition"],
 "data": [
  ["c1cncc(Oc2cccc(Oc3cccnc3)c2)c1", "-116% (inactive)"],
  ["Cc1ccc(-n2c(=O)c3c4c(sc3n3c(C)nnc23)COC(C(C)C)C4)cc1 (stereo not drawn)", "-1.3% (inactive)"],
  ["COCCOC(=O)C1=C(C)OC(N)=C(C#N)C1c1ccco1 (stereo not drawn)", "-269% (inactive)"],
  ["COc1ccc(C(CC(=O)O)NC(=O)OC(C)(C)C)cc1 (stereo not drawn)", "-60.6% (inactive)"]
]}

Record CCN(CC)CCN1C(=O)C(=O)/C(=C(/O)c2ccc(F)cc2)C1c1ccncc1 (stereo not drawn) , field inhibition: -36.8% (inactive)

Record C=CCNc1sc(C(=O)C2CC2)c(N)c1C#N , field inhibition: -70.3% (inactive)

Record c1coc(-c2nnc3sc(C4CCCCC4)nn23)c1 , field inhibition: -85.2% (inactive)

Record CCN(CC)CCN1C(=O)C(O)=C(C(=O)c2ccco2)C1c1ccccn1 (stereo not drawn) , field inhibition: -87.6% (inactive)
